meta.source: patent US20260234738A1

# tgt: SARS-COV-2 RBD extracellular domain expressed with a C-terminal mouse IgG2a (SARS-CoV-2)
Known t½ of a selection of binders
All answers are understood in h, so give the number only.

mAb10939 (antibody, V domains shown) VH: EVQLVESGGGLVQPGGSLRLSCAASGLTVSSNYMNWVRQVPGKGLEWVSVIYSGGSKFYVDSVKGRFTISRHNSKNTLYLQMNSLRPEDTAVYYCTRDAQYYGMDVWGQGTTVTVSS VL: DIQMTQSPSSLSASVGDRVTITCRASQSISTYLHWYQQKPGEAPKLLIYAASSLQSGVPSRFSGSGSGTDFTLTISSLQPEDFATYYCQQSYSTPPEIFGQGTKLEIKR    16.7

// moving on: another record for t½
According to the records, this binder mAb10920 (antibody, V domains shown) VH: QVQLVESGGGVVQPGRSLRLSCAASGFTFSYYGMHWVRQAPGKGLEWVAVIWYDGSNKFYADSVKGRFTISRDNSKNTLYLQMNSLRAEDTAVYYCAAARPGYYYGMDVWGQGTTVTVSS VL: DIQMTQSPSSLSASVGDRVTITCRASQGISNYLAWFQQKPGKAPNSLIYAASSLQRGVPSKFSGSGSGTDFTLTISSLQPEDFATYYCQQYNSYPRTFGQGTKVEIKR displays t½ of 0.658
